Reported variant/HC_K99L values are given for each entry in this list.
Biological target: T1, mouse tissue factor pathway inhibitor (TFPI) (mouse, UniProt O54819 29-289, limits assumed)
T1 construct: bought; also called mTFPI; murine TFPI
T1 sequence (looked up): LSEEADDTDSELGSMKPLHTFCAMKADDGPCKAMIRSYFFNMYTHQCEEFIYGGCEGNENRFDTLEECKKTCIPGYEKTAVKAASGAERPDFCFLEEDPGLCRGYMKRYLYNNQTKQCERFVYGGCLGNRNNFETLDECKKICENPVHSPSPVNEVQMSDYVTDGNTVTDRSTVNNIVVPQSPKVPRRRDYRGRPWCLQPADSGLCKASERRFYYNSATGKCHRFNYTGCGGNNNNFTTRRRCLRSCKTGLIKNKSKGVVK
Experiment: competitive ELISA
experimental endpoint: variant/HC_K99L (ratio)

2A8 HC S35D+K99L/LC Y48F+N51S+D91L+V96W (Fab, V domains shown) VH: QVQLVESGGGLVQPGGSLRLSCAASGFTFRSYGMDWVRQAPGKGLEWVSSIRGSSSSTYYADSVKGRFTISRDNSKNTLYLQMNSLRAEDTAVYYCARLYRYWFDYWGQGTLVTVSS VL: DIELTQPPSVSVAPGQTARISCSGDNLRNYYAHWYQQKPGQAPVVVIFYDSNRPSGIPERFSGSNSGNTATLTISGTQAEDEADYYCQSWLDGVPWFGGGTKLTVLG | 20.3
2A8 HC S31V+I51E+S55R+K99V/LC Y48F+D91L+V96W (Fab, V domains shown) VH: QVQLVESGGGLVQPGGSLRLSCAASGFTFRVYGMSWVRQAPGKGLEWVSSERGSRSSTYYADSVKGRFTISRDNSKNTLYLQMNSLRAEDTAVYYCARVYRYWFDYWGQGTLVTVSS VL: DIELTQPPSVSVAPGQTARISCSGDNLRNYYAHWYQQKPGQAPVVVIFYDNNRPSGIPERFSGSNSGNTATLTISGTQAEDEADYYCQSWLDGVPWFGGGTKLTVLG | 7
